Source listed as the supplement of paper PMC8728848.

Reported glycan array binding signal (z-score) values for a set of binders
biological target: Neu5Ac(a2-8)Neu5Gc(a2-3)Gal(b1-4)GlcNAc; test: glycan array binding signal (z-score within array); higher = stronger binding; conditions: glycan notation: IUPAC condensed, linker removed
The sample as a whole holds a higher share of the strongest signals than the screen did.
Please give the numeric answer without any surrounding text.

Reference set, count: 5
Clec12b (Mus musculus), Q149M0 (protein) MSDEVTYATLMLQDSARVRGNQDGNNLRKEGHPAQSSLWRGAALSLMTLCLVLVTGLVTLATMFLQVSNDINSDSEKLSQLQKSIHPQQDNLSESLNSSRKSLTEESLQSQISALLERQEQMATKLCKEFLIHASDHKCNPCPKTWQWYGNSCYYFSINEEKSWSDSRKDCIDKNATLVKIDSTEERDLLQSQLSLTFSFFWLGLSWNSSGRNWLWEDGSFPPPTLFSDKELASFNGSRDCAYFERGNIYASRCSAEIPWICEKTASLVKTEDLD	-0.719
SP15308A-bot-339-19-339 (Bacteroides ovatus) (protein) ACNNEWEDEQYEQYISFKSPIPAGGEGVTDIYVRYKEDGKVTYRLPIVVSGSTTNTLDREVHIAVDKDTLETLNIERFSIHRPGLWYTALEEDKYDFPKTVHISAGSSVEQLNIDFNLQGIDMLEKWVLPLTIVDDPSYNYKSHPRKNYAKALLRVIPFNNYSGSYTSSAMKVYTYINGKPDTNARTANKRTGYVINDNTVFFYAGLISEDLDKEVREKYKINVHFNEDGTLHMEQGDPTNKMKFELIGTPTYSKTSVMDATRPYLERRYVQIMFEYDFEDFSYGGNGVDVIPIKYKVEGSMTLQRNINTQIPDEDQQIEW	-0.21
Si Bti9 1b-HA (Solanum lycopersicum) (protein) MFESRPRSVLSLGVFVILVYLSSVPLPVNSQCNRGCDLALASFYVWRGSNLTLISEMFSTSIADIVSYNNRDNIPNQDSVIAGTRINIPFRCDCLNDGEVLGHAFPYRVKSGDTYDLVARNYSDLTTAQWMMKFNSYPENNIPNTVNLSVVVNCSCGNSDVSKDFGLFVTYPVRAEDNLTSVASAANVSEDIIRRYNPAAVSILDIGQGIIYIPGRDRNGNFPPLPTSTDGLSGGAKAPLFFNPAFLYKVVELKLAGRSRTSGYPYDVPDYAGYPYDVPDYALEVLFQ	-0.539
OVGAL11 (Ovis aries), AAF64320 (protein) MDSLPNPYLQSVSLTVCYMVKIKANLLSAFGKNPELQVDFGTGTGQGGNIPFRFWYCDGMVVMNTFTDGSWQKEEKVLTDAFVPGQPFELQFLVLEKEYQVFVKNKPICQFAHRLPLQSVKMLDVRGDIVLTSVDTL	0.807
OGAA (protein) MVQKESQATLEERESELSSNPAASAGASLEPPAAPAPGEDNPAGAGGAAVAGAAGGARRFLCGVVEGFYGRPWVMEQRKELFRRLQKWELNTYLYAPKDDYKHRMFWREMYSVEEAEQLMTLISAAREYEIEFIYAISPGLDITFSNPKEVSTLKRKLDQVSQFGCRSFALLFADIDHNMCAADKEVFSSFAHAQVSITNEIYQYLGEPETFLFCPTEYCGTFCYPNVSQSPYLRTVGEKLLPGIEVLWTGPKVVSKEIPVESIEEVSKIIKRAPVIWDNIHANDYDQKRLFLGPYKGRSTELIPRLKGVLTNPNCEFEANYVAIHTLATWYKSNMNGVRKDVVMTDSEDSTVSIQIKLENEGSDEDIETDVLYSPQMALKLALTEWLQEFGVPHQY	-0.042

Next binder, please.
Task item: Data request, read-out glycan array binding signal (z-score), for LlpA1 (Pseudomonas fluorescens), Q4KHC3 (protein) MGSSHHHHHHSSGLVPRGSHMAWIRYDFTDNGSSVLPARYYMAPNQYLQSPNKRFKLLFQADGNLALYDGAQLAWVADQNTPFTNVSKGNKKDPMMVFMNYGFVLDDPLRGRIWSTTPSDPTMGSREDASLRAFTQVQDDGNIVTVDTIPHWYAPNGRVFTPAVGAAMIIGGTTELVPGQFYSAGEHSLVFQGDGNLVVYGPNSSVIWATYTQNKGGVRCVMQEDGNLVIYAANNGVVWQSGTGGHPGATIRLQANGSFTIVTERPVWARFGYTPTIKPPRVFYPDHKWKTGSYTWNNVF
Reply: 8.89
